Target: asc-1 of mouse (co-expressed with 4F2hc of mouse) (Mus musculus)
Construct: expressed in transfected cells; host or cells: Xenopus oocytes injected with cRNA
Sequence (P63115 1-530): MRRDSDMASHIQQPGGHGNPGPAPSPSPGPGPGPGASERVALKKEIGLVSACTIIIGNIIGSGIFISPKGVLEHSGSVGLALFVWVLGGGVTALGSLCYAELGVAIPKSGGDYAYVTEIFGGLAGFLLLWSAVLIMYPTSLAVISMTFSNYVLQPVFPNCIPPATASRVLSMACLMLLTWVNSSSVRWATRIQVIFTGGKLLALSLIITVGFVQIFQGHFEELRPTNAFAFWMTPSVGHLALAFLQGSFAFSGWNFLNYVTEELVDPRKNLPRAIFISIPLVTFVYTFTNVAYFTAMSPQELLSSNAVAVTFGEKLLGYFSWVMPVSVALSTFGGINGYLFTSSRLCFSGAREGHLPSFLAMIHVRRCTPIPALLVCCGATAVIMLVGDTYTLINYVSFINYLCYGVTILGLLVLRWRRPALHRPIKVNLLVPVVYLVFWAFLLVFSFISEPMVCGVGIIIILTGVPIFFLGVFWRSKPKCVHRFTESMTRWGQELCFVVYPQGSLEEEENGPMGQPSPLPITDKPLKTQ
Sequence (P10852 1-526 partner): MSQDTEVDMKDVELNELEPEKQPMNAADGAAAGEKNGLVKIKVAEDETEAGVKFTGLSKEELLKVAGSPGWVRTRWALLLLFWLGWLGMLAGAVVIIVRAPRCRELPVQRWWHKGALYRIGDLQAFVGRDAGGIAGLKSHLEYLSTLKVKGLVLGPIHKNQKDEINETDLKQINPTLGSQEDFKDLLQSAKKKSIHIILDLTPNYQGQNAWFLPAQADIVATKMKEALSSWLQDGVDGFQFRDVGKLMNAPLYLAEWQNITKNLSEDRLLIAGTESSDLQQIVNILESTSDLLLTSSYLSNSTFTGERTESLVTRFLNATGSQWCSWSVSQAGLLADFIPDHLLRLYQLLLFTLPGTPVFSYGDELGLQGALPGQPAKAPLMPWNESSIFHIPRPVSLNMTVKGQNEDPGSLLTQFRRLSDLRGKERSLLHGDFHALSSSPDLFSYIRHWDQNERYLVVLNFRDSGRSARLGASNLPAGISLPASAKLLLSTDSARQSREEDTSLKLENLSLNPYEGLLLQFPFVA
Assay: Incorporation of radiolabeled amino acids and analogs by oocytes co-expressing asc-1 and 4F2hc
Format: cell-based
Details: summary statement; asc-1 co-existing with 4F2hc
ASSAY_METRIC: transport by asc-1 (affinity in words)

Please review the following examples before continuing.
1. C[C@@H](N)C(=O)O    transports
2. COC(=O)[C@H](C)N    transports
3. C[C@H](N)C(=O)O    highly affinitive
4. N[C@@H](CO)C(=O)O    highly affinitive
5. CC[C@H](C)[C@H](N)C(=O)O    lowly affinitive
6. N[C@@H](CS)C(=O)O    highly affinitive
7. CC(C)(N)C(=O)O    transports
8. NCCC(=O)O    transports
9. N[C@@H](Cc1ccccc1)C(=O)O    lowly affinitive
10. CC(C)[C@H](N)C(=O)O    lowly affinitive

Ask: Which transport by asc-1 (affinity in words) is listed for `CC(C)C[C@H](N)C(=O)O` ?
Reply: lowly affinitive

Ask: Which transport by asc-1 (affinity in words) is listed for `N[C@@H](Cc1c[nH]cn1)C(=O)O` ?
Reply: lowly affinitive

====

Biological target: asc-1 of mouse (co-expressed with 4F2hc of mouse) (Mus musculus, UniProt P63115)
Construct: expressed in transfected cells; host or cells: Xenopus oocytes injected with cRNA
Assay: Inhibition of 14C-alanine incorporation by added amino acids and analogs in oocytes co-expressing asc-1 and 4F2hc
Assay type: cell-based
Settings: 14C-alanine 50 μM; 5 mM non-labeled compound; Na+-free uptake solution
ASSAY_METRIC: inhibition of incorporation of 14C-alanine mediated by asc-1

1) N[C@H](CO)C(=O)O [D-Serine]    strongly inhibited
2) CN[C@@H](C)C(=O)O [N-methylalanine]    did not affect
3) C[C@@H](N)C(=O)O [D-Alanine]    strongly inhibited
4) COC(=O)[C@H](C)N [alanine methyl ester]    inhibited
5) CNCC(=O)O [sarcosine]    did not affect

Ask: Field: inhibition of incorporation of 14C-alanine mediated by asc-1 (asc-1 of mouse (co-expressed with 4F2hc of mouse) (Mus musculus, UniProt P63115)). Entry: NC1(C(=O)O)CC2CCC1C2 (stereo not drawn) [BCH, 2-amino-2-norbornane-carboxylic acid]
Reply: did not affect

Ask: Field: inhibition of incorporation of 14C-alanine mediated by asc-1 (asc-1 of mouse (co-expressed with 4F2hc of mouse) (Mus musculus, UniProt P63115)). Entry: NCCC(=O)O [β-Alanine]
Reply: inhibited

Ask: Field: inhibition of incorporation of 14C-alanine mediated by asc-1 (asc-1 of mouse (co-expressed with 4F2hc of mouse) (Mus musculus, UniProt P63115)). Entry: CC(C)(N)C(=O)O [AIB, α-aminoisobutyric acid]
Reply: inhibited

====

Reported values of Vmax for individual entries
Target: asc-1 of mouse (co-expressed with 4F2hc of mouse) (Mus musculus)
Construct: expressed in transfected cells; host or cells: Xenopus oocytes injected with cRNA
Assay: Michaelis-Menten kinetic test of substrate incorporation by Xenopus oocytes co-expressing asc-1 and 4F2hc
Type: cell-based
Settings: ratio to the Vmax value for alanine (defined as 1.00)

1) CC(C)[C@H](N)C(=O)O [L-Valine]    1.17

Ask: Which Vmax is listed for CSCC[C@H](N)C(=O)O [L-Methionine] ?
Reply: 1.15

Ask: Which Vmax is listed for N[C@@H](Cc1ccccc1)C(=O)O [L-Phenylalanine] ?
Reply: 1.09

Ask: Which Vmax is listed for C[C@@H](N)C(=O)O [D-Alanine] ?
Reply: 0.86

Ask: Which Vmax is listed for CC(C)C[C@H](N)C(=O)O [L-Leucine] ?
Reply: 0.58

Ask: Which Vmax is listed for C[C@@H](O)[C@H](N)C(=O)O [L-Threonine] ?
Reply: 0.86

Ask: Which Vmax is listed for NCCC(=O)O [β-Alanine] ?
Reply: 0.92

Ask: Which Vmax is listed for N[C@H](CO)C(=O)O [D-Serine] ?
Reply: 1.22

Ask: Which Vmax is listed for N[C@@H](CO)C(=O)O [L-Serine] ?
Reply: 1.02

Ask: Which Vmax is listed for CC(C)(N)C(=O)O [AIB, α-aminoisobutyric acid] ?
Reply: 0.81

====

Target: asc-1 of mouse (co-expressed with 4F2hc of mouse) (Mus musculus)
Construct: expressed in transfected cells; host or cells: Xenopus oocytes injected with cRNA
Test: Incorporation of radiolabeled amino acids and analogs by oocytes co-expressing asc-1 and 4F2hc
Assay type: cell-based
Conditions: radiolabeled substrate; oocytes expressing both asc-1 and 4F2hc; Na+-free uptake solution
ASSAY_METRIC: incorporation into the oocytes as substrate

Please review the following examples before continuing.
1. NCCC(=O)O    big incorporation
2. N[C@@H](CO)C(=O)O    big incorporation
3. N[C@H](CO)C(=O)O    big incorporation
4. C[C@@H](N)C(=O)O    big incorporation
5. N[C@@H](CS)C(=O)O    big incorporation

Ask: Which incorporation into the oocytes as substrate is listed for `C[C@H](N)C(=O)O` ?
Reply: big incorporation

Ask: Which incorporation into the oocytes as substrate is listed for `CC(C)(N)C(=O)O` ?
Reply: big incorporation

====

Molecular target: asc-1 of mouse (co-expressed with 4F2hc of mouse) (Mus musculus, UniProt P63115)
Construct: expressed in transfected cells; host or cells: Xenopus oocytes injected with cRNA
Assay: Release of preloaded 14C-alanine from oocytes co-expressing asc-1 and 4F2hc on extracellular addition of compound
Assay type: cell-based
Conditions: 100 μM compound added to Na+-free uptake solution; room temperature
ASSAY_METRIC: increase in the release of preloaded 14C-alanine

Please review the following examples before continuing.
1) C[C@@H](O)[C@H](N)C(=O)O    high increase
2) C[C@H](O)[C@@H](N)C(=O)O    significant increase
3) N[C@H](CO)C(=O)O    significant increase
4) N[C@@H](CO)C(=O)O    high increase
5) CC(C)[C@H](N)C(=O)O    medium increase

Ask: Which increase in the release of preloaded 14C-alanine is listed for `C[C@@H](N)C(=O)O` ?
Reply: significant increase

Ask: Which increase in the release of preloaded 14C-alanine is listed for `CC(C)(N)C(=O)O` ?
Reply: significant increase

Ask: Which increase in the release of preloaded 14C-alanine is listed for `NCCC(=O)O` ?
Reply: significant increase

Ask: Which increase in the release of preloaded 14C-alanine is listed for `COC(=O)[C@H](C)N` ?
Reply: significant increase

Ask: Which increase in the release of preloaded 14C-alanine is listed for `NCC(=O)O` ?
Reply: high increase

Ask: Which increase in the release of preloaded 14C-alanine is listed for `CSCC[C@H](N)C(=O)O` ?
Reply: medium increase

Ask: Which increase in the release of preloaded 14C-alanine is listed for `N[C@H](CS)C(=O)O` ?
Reply: significant increase
